# Lookup of reported Dmax keyed by entry
Measurement target: UniProt Q9NWZ3
Sequence (Q9NWZ3 whole entry): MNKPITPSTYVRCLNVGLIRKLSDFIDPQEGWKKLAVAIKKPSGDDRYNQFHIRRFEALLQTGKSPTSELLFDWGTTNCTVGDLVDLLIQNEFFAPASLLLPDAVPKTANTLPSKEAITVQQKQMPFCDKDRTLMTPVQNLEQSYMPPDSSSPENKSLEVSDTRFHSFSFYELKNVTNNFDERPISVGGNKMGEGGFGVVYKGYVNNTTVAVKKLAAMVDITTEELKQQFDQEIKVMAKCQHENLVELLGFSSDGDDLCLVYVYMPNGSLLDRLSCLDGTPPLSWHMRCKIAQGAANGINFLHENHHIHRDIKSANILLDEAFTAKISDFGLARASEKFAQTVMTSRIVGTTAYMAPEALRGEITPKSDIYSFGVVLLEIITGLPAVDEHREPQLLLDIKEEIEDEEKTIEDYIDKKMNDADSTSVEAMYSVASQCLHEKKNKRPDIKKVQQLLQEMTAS
Test description: IRAK4 Degradation HiBiT Assay
Experimental parameters: Jurkat, read-out: Cellular IRAK4 HiBiT: Dmax, Table 5; multiple runs; HiBiT-tagged Jurkat cells, 4 hrs
Express the result in % but write the number alone.

- Compound: "CC(C)Nc1cc(-c2ccc3cc(C#N)cnn23)ncc1-c1nnc(N2CCC(NC(=O)C3CCN(Cc4ccc5c(c4)C(=O)N(C4CCC(=O)NC4=O)C5=O)CC3)CC2)s1 (centres unmarked)"
  Measurement target: "UniProt Q9NWZ3"
  Reading: 95
- Compound: "CNc1cc(-c2ccc3cc(C#N)cnn23)ncc1-c1nnc([C@H]2CC[C@H](NC(=O)C34CC(C(=O)N[C@H](C(=O)N5C[C@H](O)C[C@H]5C(=O)N[C@@H](C)c5ccc(-c6scnc6C)cc5)C(C)(C)C)(C3)C4)CC2)s1"
  Measurement target: "UniProt Q9NWZ3"
  Reading: 117
- Compound: "CNc1cc(-c2ccc3cc(C#N)cnn23)ncc1-c1nnc([C@H]2CC[C@H](NC(=O)CCCCCOc3cc(-c4scnc4C)ccc3CNC(=O)[C@@H]3C[C@@H](O)CN3C(=O)[C@@H](NC(=O)C3(F)CC3)C(C)(C)C)CC2)s1"
  Measurement target: "UniProt Q9NWZ3"
  Reading: 112
- Compound: "N#Cc1cnn2c(-c3cc(NC4CCOCC4)c(-c4nnc(C56CCC(NC(=O)CCOCCOCCNc7cccc8c7C(=O)N(C7CCC(=O)NC7=O)C8=O)(CC5)CC6)s4)cn3)ccc2c1 (centres unmarked)"
  Measurement target: "UniProt Q9NWZ3"
  Reading: 60
- Compound: "CCN(C(=O)C[C@H](NC(=O)[C@@H]1C[C@@H](O)CN1C(=O)C(c1cc(C)no1)C(C)C)c1ccc(-c2scnc2C)cc1)[C@H]1CC[C@H](c2nnc(-c3cnc(-c4ccc5cc(C#N)cnn45)cc3NC)s2)CC1 (some centres unmarked)"
  Measurement target: "UniProt Q9NWZ3"
  Reading: 103
- Compound: "CNc1cc(-c2ccc3cc(C#N)cnn23)ncc1-c1nnc(N2CCN(CC3CCN(c4ccc(C(=O)NC5CCC(=O)NC5=O)nc4)CC3)CC2)s1 (centres unmarked)"
  Measurement target: "UniProt Q9NWZ3"
  Reading: 56
- Compound: "CNc1cc(-c2ccc3cc(C#N)cnn23)ncc1-c1nnc([C@H]2CC[C@H](NC(=O)CCCCCNc3cccc4c3C(=O)N(C3CCC(=O)NC3=O)C4=O)CC2)s1 (some centres unmarked)"
  Measurement target: "UniProt Q9NWZ3"
  Reading: 54
- Compound: "CNc1cc(-c2ccc3cc(C#N)cnn23)ncc1-c1nnc([C@H]2CC[C@H](N(C)CC3CCN(c4ccc(C(=O)N(C)C5CCC(=O)NC5=O)cc4)CC3)CC2)s1 (some centres unmarked)"
  Measurement target: "UniProt Q9NWZ3"
  Reading: 62

For the compound CC(C)Nc1cc(-c2ccc3cc(C#N)cnn23)ncc1-c1nnc(N2CCN(C(=O)C3CCN(C[C@H]4CCN(c5ccc6c(c5)C(=O)N(C5CCC(=O)NC5=O)C6=O)C4)CC3)CC2)s1 (some centres unmarked) , report Dmax.
91

For the compound CNc1cc(-c2ccc3cc(C#N)cnn23)ncc1-c1nnc([C@H]2CC[C@@H](NC(=O)C3CCN(c4ccc5c(c4)C(=O)N(C4CCC(=O)NC4=O)C5=O)CC3)CC2)s1 (some centres unmarked) , report Dmax.
111

For the compound CC(C)Nc1cc(-c2ccc3cc(C#N)cnn23)ncc1-c1nnc(N2CCN(CCCc3ccc4c(c3)CN(C3CCC(=O)NC3=O)C4=O)CC2)s1 (centres unmarked) , report Dmax.
57

For the compound CNc1cc(-c2ccc3cc(C#N)cnn23)ncc1-c1nnc(N2CCC(NC(=O)CCC(=O)N[C@H](C(=O)N3C[C@H](O)C[C@H]3C(=O)N[C@@H](C)c3ccc(-c4scnc4C)cc3)C(C)(C)C)CC2)s1 , report Dmax.
74

For the compound CN[C@@H](C)C(=O)N[C@H](C(=O)N1CCC[C@H]1c1nc(C(=O)c2cccc(OCCOCCOCCOCCC(=O)N3CCN(c4nnc(-c5cnc(-c6ccc7cc(C#N)cnn67)cc5NC(C)C)s4)CC3)c2)cs1)C1CCCCC1 , report Dmax.
45

For the compound Cc1ncsc1-c1ccc(CNC(=O)[C@@H]2C[C@@H](O)CN2C(=O)[C@@H](NC(=O)C2(F)CC2)C(C)(C)C)c(OCCOCCOCCOCCOCCOCCC(=O)N2CCN(c3nnc(-c4cnc(-c5ccc6cc(C#N)cnn56)cc4NC(C)C)s3)CC2)c1 , report Dmax.
119
